# tgt: UniProtKB P48426
# Sequence (P48426 1-406): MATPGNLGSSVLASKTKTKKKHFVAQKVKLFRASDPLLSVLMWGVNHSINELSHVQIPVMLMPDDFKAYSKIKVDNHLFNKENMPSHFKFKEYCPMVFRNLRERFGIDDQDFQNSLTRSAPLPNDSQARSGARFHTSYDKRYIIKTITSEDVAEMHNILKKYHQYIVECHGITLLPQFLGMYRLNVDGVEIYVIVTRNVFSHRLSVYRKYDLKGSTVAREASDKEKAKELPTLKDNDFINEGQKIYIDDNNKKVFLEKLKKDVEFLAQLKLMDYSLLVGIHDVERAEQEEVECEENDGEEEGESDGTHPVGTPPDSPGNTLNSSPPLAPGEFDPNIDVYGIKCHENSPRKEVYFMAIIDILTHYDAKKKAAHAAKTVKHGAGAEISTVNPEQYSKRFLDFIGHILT
# test.summary: ADP-glo kinase assay PIP4K 2A (Table 3)
# Assay type: biochemical
# Parameters: made in house; host or cells: E. coli
# condition: compounds listed under IC50 bins
assay.metric: IC50

Before answering, review these 10 worked examples.
COCc1nc(Nc2cnc3c(c2)N2C(=O)CC[C@H]2CO3)ncc1-c1ccc(N2CCCC2=O)cc1	1 to 10 nM
CC1(C)C[C@H]2COc3ncc(Nc4ccc(-c5ccc(N6CCCC6=O)c(F)c5)cn4)cc3N2C1=O	1 to 10 nM
O=C1CCCN1c1ccc(-c2ccc(Nc3cnc4c(c3)N3C(=O)C5(CC5)C[C@H]3CO4)nc2)cc1	1 to 10 nM
O=C1CCCN1c1ccc(-c2ccc(Nc3cncc(N4CCN(Cc5cscn5)C4=O)c3)nc2)cc1	1 to 10 nM
CCO[C@H]1C[C@@H]1C(=O)Nc1cncc(Nc2ccc(-c3ccc(N4CCCC4=O)cc3)cn2)c1	10 to 100 nM
C[C@@]1(O)C[C@H]2COc3ncc(Nc4ccc(-c5ccc(N6CCCC6=O)cc5)cn4)cc3N2C1=O	10 to 100 nM
CC1(C)C[C@H]2COc3ncc(Nc4ccc(-c5ccc(N6CCCC6=O)cc5)cn4)cc3N2C1=O	1 to 10 nM
CN(C)C(=O)c1ccc(-c2ccc(Nc3cncc(N4CCN(Cc5ccc(N)cc5)C4=O)c3)nc2)cc1	1 to 10 nM
CN(C)C(=O)c1ccc(-c2ccc(Nc3cncc(NC(=O)c4cccnc4)c3)nc2)cc1	100 to 1000 nM
CN(C)C/C=C/C(=O)Nc1cccc(CCC(=O)Nc2cncc(Nc3ccc(-c4ccc(C(=O)N(C)C)cc4)cn3)c2)c1	10 to 100 nM

Entry under test: CN(C)C(=O)c1ccc(-c2ccc(Nc3cnc4c(c3)OCCO4)nc2)cc1 . Its IC50 was 100 to 1000 nM

Entry under test: CN(C)C(=O)c1ccc(-c2ccc(Nc3ccc(CCN4CCOCC4)nc3)nc2)cc1 . Its IC50 was > 1000 nM

Entry under test: O=C1CCCN1c1ccc(-c2cnc(Nc3cnc4c(c3)N3C(=O)CC[C@H]3CO4)cn2)cc1 . Its IC50 was 10 to 100 nM

Entry under test: O=C1CCCN1c1ccc(-c2cnc(Nc3cnc4c(c3)N3C(=O)CC[C@H]3CO4)nc2)cc1F . Its IC50 was 10 to 100 nM

Entry under test: CN(C)C(=O)c1ccc(-c2ccc(Nc3cncc(NC(=O)CCc4cccc(NC(=O)OC(C)(C)C)c4)c3)nc2)cc1 . Its IC50 was 100 to 1000 nM

Entry under test: O=C1CCCN1c1ccc(-c2cnc(Nc3cncc(N4CCN(Cc5cscn5)C4=O)c3)cn2)cc1 . Its IC50 was 1 to 10 nM

Entry under test: CN(C)C(=O)c1ccc(-c2ccc(Nc3cncc(NC(=O)CCc4cccc(NC(=O)C5CCNCC5)c4)c3)nc2)cc1 . Its IC50 was 1 to 10 nM

---

# tgt: PIP4K2A (Homo sapiens)
# Sequence (P48426 1-406): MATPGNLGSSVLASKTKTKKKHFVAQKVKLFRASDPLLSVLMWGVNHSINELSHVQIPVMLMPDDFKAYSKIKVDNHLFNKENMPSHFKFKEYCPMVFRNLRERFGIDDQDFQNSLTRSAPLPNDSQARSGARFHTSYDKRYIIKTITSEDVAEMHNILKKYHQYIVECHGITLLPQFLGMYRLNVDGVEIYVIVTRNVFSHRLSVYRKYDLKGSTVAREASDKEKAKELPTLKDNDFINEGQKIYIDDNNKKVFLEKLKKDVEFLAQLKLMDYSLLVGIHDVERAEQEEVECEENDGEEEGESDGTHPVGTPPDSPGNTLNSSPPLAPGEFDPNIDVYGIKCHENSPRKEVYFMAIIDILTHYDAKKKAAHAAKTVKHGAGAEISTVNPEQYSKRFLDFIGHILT
# test.summary: Kinase Assay PIP4K2 A (Table 2)
# Type: biochemical
# Set-up: 4 nM PIP4K2A (full length protein, SignalChem); purchased SignalChem
# condition: compounds listed under IC50 bins
This listing pairs molecules with measured IC50.

CN(C)C(=O)c1ccc(-c2ccc(Nc3cncc(N4CCN(Cc5ccc(NC(=O)CCc6cccc(N)c6)cc5)C4=O)c3)nc2)cc1 [Example 230]	1 to 10 nM
CN(C)C(=O)c1ccc(-c2ccc(Nc3cncnc3)nc2)cc1 [Example 32]	100 to 1000 nM

Form: item CN(C)C(=O)c1ccc(-c2ccc(Nc3cncc(NC(=O)C4CCOCC4)c3)nc2)cc1 [Example 126] ; test system PIP4K2A (Homo sapiens); IC50: 10 to 100 nM
